Data origin: PubChem BioAssay AID743280

- Subject of test: Group 3 secretory phospholipase A2 (Homo sapiens) (UniProt Q9NZ20)
- Sequence (Q9NZ20 whole entry, looked up): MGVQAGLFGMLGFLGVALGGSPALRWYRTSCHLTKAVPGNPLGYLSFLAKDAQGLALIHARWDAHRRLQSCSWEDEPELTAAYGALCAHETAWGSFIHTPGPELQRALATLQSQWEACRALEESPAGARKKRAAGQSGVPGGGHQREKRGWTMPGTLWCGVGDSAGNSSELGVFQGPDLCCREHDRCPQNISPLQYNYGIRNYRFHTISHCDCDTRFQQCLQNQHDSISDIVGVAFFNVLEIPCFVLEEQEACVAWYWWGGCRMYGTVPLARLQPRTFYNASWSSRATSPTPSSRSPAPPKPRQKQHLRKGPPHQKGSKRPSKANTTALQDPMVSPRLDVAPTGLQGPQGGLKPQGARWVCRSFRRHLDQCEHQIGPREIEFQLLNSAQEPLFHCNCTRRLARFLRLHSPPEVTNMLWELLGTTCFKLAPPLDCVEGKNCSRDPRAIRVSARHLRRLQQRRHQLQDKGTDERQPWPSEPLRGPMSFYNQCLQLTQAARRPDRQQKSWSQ
- Procedure details: human group III sPLA2 inhibitors, confirmation, biochemical, QFRET, triplicate (AID 743280)
- Study conditions: recombinant hGIII-sPLA2, BODIPY PC-A2 QFRET fluorescence; at 12.2 µM
Among all 2,000 compounds or so, about 680 (34%) were called active.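 How the source made its calls: active means mean inhibition across triplicates above the hit cutoff set in the earlier primary screen (cut at about 19% in these data); inactive means the rest.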 Not all results are given here.
Labels: active, inactive

{"Compound": "COc1ccc2c(c1)c(=Cc1ccc(N(C)C)cc1)c1cc(-c3ccccc3)[n+](C)n12", "Assigned label": "active"}
{"Compound": "CC(=O)c1nnn(-c2ccc(Cl)cc2C#N)c1C", "Assigned label": "inactive"}
{"Compound": "C#CCCCc1nc2ccccc2c(=O)n1N", "Assigned label": "inactive"}
{"Compound": "CC(=O)/C(=N\\Nc1ccc(Cl)cc1Cl)Sc1cccc2cccnc12", "Assigned label": "inactive"}
{"Compound": "COc1cc(OC)cc(C2=Cc3ccccc3C(CC(=O)c3ccco3)N2c2ccc(-c3cnc(OC)nc3)cc2)c1 (stereo not drawn)", "Assigned label": "inactive"}
{"Compound": "COc1ccccc1OCC(=O)OCn1c(SC)nnc(C)c1=O", "Assigned label": "inactive"}
{"Compound": "CN(CC(=O)Nc1ccc(N2CCOCC2)cc1)CC(=O)Nc1ccccc1[N+](=O)[O-]", "Assigned label": "inactive"}
{"Compound": "C=CCNc1scc(-c2ccccc2)[n+]1CC=C", "Assigned label": "inactive"}
{"Compound": "Cc1c(C(=O)N/N=C/c2ccccc2)[nH]c2c([N+](=O)[O-])cccc12", "Assigned label": "inactive"}
{"Compound": "O=C(CSc1nc2ccccc2n1Cc1ccccc1)NNC(=S)Nc1ccccc1", "Assigned label": "inactive"}
{"Compound": "O=C(Nc1cccc(F)c1)c1cc(-c2ccco2)nc2ccccc12", "Assigned label": "inactive"}
{"Compound": "COc1ccccc1OCCn1c(SCC(N)=O)nc2ccccc21", "Assigned label": "inactive"}
{"Compound": "CC(C)(c1ccccc1)c1ccc(OCCN)cc1", "Assigned label": "inactive"}
{"Compound": "Cc1cc(NCCc2c[nH]c3ccccc23)ccc1Oc1cccnc1", "Assigned label": "inactive"}
{"Compound": "O=C(OC12CC3CC(CC(C3)C1)C2)c1ccc(NCc2cc(O)ccc2O)cc1", "Assigned label": "active"}
{"Compound": "COc1ccc(C(N)c2csc(NC(=O)Nc3cccc(C(F)(F)F)c3)n2)cc1 (stereo not drawn)", "Assigned label": "active"}
{"Compound": "CSC1=NN(c2ccccc2)CN(c2ccccc2)N1C", "Assigned label": "active"}
{"Compound": "Cc1cccc(-n2cnc(C(=O)NNC(=S)Nc3ccccc3)c2)n1", "Assigned label": "active"}
{"Compound": "Oc1ccc2ccccc2c1N=Nc1nccs1", "Assigned label": "active"}
{"Compound": "N#CC1(Nc2ccc(-c3ccc(Cl)cc3)cc2)CCCC1", "Assigned label": "active"}
{"Compound": "CC(C)CC(=O)NC(=S)NNC(=O)c1cccc([N+](=O)[O-])c1", "Assigned label": "active"}
{"Compound": "O=C(/C=C/c1c(Cl)cccc1Cl)NCc1ccccc1", "Assigned label": "inactive"}
{"Compound": "NC(c1csc(NC(=O)Nc2ccccc2Oc2ccccc2)n1)c1ccccc1Cl (stereo not drawn)", "Assigned label": "inactive"}
